Test system: SARS-CoV-2
method_summary: Antiviral activity against SARS-CoV-2 infected in african green monkey Vero E6 cells assessed as reduction in viral growth measured for 2 days by qRT-PCR
Type: functional, organism-based
condition: Severe acute respiratory syndrome coronavirus 2, Vero C1008, 48 h
parameter: EC50 (µM)
Give bare numbers, in µM.

Quick one: EC50 of COc1cc(/C=C/C(=O)CC(=O)/C=C/c2ccc(O)c(OC)c2)ccc1O ?
38
